These entries and their values trace back to PubChem BioAssay (Tox21).

- MEASUREMENT_NOTES: qHTS assay for small molecules that induce genotoxicity in human embryonic kidney cells expressing luciferase-tagged ATAD5 (AID 651632); also: nearly all actives have a fitted effect of over 15% in size
- CONDITIONS_USED: HEK293T ATAD5-luciferase induction, 16 h; series mostly up to 83.3 µM
Records with an inconclusive call do not appear. Calls of active or inactive are those of the source. Calls follow the shape of the dose curve; as a rule, active = well fitted activation curve with a large enough effect in the repeat runs; inconclusive = weak or mixed curves; inactive = no such curve, though single readings can be large or run the other way.
QUANTITY_MEASURED: activation

>  <COMPOUND>
O=[N+]([O-])c1cc(C(F)(F)F)c(Cl)c([N+](=O)[O-])c1Nc1ncc(C(F)(F)F)cc1Cl

>  <VALUE_MEASURED>
inactive

$$$$
>  <COMPOUND>
CCNS(=O)(=O)C(F)(F)C(F)(F)C(F)(F)C(F)(F)C(F)(F)C(F)(F)C(F)(F)C(F)(F)F

>  <VALUE_MEASURED>
inactive

$$$$
>  <COMPOUND>
COP(=O)(OC)O/C(=C\Cl)c1cc(Cl)c(Cl)cc1Cl

>  <VALUE_MEASURED>
inactive

$$$$
>  <COMPOUND>
COc1c2c(cc3c1OCO3)CCN(C)C2

>  <VALUE_MEASURED>
inactive

$$$$
>  <COMPOUND>
COC(=O)c1ccccc1S(=O)(=O)NC(=O)Nc1nc(C)nc(OC)n1

>  <VALUE_MEASURED>
inactive

$$$$
>  <COMPOUND>
COC(=O)N(OC)c1ccccc1COc1ccn(-c2ccc(Cl)cc2)n1

>  <VALUE_MEASURED>
inactive

$$$$
>  <COMPOUND>
CN1CCc2cc(Cl)c(O)cc2[C@H]2c3ccccc3CC[C@@H]21

>  <VALUE_MEASURED>
inactive

$$$$
>  <COMPOUND>
O=NN(CCO)CCO

>  <VALUE_MEASURED>
inactive

$$$$
>  <COMPOUND>
Clc1ccc(C(c2ccc(Cl)cc2)C(Cl)Cl)cc1

>  <VALUE_MEASURED>
inactive

$$$$
>  <COMPOUND>
CCCCN(CCCC)C(=S)[S-].CCCCN(CCCC)C(=S)[S-].[Ni+2]

>  <VALUE_MEASURED>
inactive

$$$$
>  <COMPOUND>
CC(C)C(Br)C(=O)NC(N)=O (stereo unspecified)

>  <VALUE_MEASURED>
inactive

$$$$

###

- MEASUREMENT_NOTES: qHTS RealTime-Glo MT Cell Viability Assay in HEK293 cells - 0 hour (AID 1224880); also: nearly all actives have a fitted effect of over 45% in size
- CONDITIONS_USED: RealTime-Glo luminescence; series mostly up to 76.8 µM
Records with an inconclusive call do not appear. Active and inactive are the calls of the source. The call rests on the fitted dose curve; in most records, active means well fitted cell-killing curve with a large enough effect in the repeat runs; inconclusive means weak or mixed curves, or effect the other way; inactive means flat fitted curve, though single readings scatter.
Outcome codes: true = active, false = inactive

>  <MOLECULE>
COc1cnc(OC)n2nc(NS(=O)(=O)c3c(OCC(F)F)cccc3C(F)(F)F)nc12

>  <CLASS_ASSIGNMENT>
false

$$$$
>  <MOLECULE>
CCN1CCC2(CC1)COc1cc3c(cc12)N(C(=O)c1ccc(-c2ccc(-c4nnc(C)o4)cc2C)cc1)CC3

>  <CLASS_ASSIGNMENT>
true

$$$$
>  <MOLECULE>
O=C(Cl)c1ccccc1F

>  <CLASS_ASSIGNMENT>
false

$$$$
>  <MOLECULE>
COP(=S)(OC)Oc1ccc([N+](=O)[O-])c(C)c1

>  <CLASS_ASSIGNMENT>
false

$$$$
>  <MOLECULE>
CN1C2CCC(C)(C)C1CC(OC(=O)C(O)(c1cccs1)c1cccs1)C2 (configuration not stated)

>  <CLASS_ASSIGNMENT>
false

$$$$
>  <MOLECULE>
CCCCN(CCCC)C(=S)S

>  <CLASS_ASSIGNMENT>
false

$$$$
>  <MOLECULE>
O=C(N[C@H]1N=C(c2ccccc2F)c2cccc3c2N(CC3)C1=O)c1cc2ccccc2[nH]1

>  <CLASS_ASSIGNMENT>
false

$$$$
>  <MOLECULE>
CNC(=O)/C=C(\C)OP(=O)(OC)OC

>  <CLASS_ASSIGNMENT>
false

$$$$
>  <MOLECULE>
CCN(CC)CCN1C(=O)CN=C(c2ccccc2F)c2cc(Cl)ccc21

>  <CLASS_ASSIGNMENT>
false

$$$$
>  <MOLECULE>
CN1C(=O)[C@@H](NC(=O)c2cc3ccccc3[nH]2)N=C(c2ccccc2)c2ccccc21

>  <CLASS_ASSIGNMENT>
false

$$$$
>  <MOLECULE>
CCN(CC)CCc1c[nH]c2ccccc12

>  <CLASS_ASSIGNMENT>
false

$$$$
>  <MOLECULE>
CC(=O)C(Cl)C(=O)N(C)C (configuration not stated)

>  <CLASS_ASSIGNMENT>
false

$$$$
>  <MOLECULE>
CCOP(=S)(OCC)Oc1cc(C)nc(N(CC)CC)n1

>  <CLASS_ASSIGNMENT>
false

$$$$
>  <MOLECULE>
CC(C)NCC(O)c1ccccc1Cl (configuration not stated)

>  <CLASS_ASSIGNMENT>
false

$$$$
>  <MOLECULE>
COc1ccc2[nH]cc(CCN(C(C)C)C(C)C)c2c1

>  <CLASS_ASSIGNMENT>
false

$$$$
>  <MOLECULE>
N#CC(C#N)=NNc1cccc(Cl)c1

>  <CLASS_ASSIGNMENT>
true

$$$$
>  <MOLECULE>
CC(C)c1c(CN(C)C(C)Cc2ccccc2)n(C)n(-c2ccccc2)c1=O (configuration not stated)

>  <CLASS_ASSIGNMENT>
false

$$$$
>  <MOLECULE>
c1ccc(N=NNc2ccccc2)cc1

>  <CLASS_ASSIGNMENT>
false

$$$$
>  <MOLECULE>
CC(C)C(Br)C(=O)NC(N)=O (configuration not stated)

>  <CLASS_ASSIGNMENT>
false

$$$$
>  <MOLECULE>
C[C@H]1[C@H](c2ccc(Cl)cc2)SC(=O)N1C(=O)NC1CCCCC1

>  <CLASS_ASSIGNMENT>
false

$$$$
>  <MOLECULE>
BrCCCBr

>  <CLASS_ASSIGNMENT>
false

$$$$
>  <MOLECULE>
CC(=O)[O-].CC(=O)[O-].O.O.O.[Pb+2]

>  <CLASS_ASSIGNMENT>
false

$$$$
>  <MOLECULE>
CC1(C)C(C=C(Cl)Cl)C1C(=O)OC(C#N)c1ccc(F)c(Oc2ccccc2)c1 (configuration not stated)

>  <CLASS_ASSIGNMENT>
false

$$$$
>  <MOLECULE>
c1ccc2c(c1)cc1ccc3cccc4ccc2c1c34

>  <CLASS_ASSIGNMENT>
false

$$$$
>  <MOLECULE>
S=C=Nc1ccccc1

>  <CLASS_ASSIGNMENT>
false

$$$$
>  <MOLECULE>
O=S1(=O)OCC2C(CO1)C1(Cl)C(Cl)=C(Cl)C2(Cl)C1(Cl)Cl (configuration not stated)

>  <CLASS_ASSIGNMENT>
false

$$$$
>  <MOLECULE>
CC(Cl)CCl (configuration not stated)

>  <CLASS_ASSIGNMENT>
false

$$$$
>  <MOLECULE>
COP(=O)(OC)Oc1ccc([N+](=O)[O-])cc1

>  <CLASS_ASSIGNMENT>
false

$$$$
>  <MOLECULE>
Cc1cc(C2CC2)nc(Nc2ccccc2)n1

>  <CLASS_ASSIGNMENT>
false

$$$$
>  <MOLECULE>
O=C1C[C@@H]2OCC=C3CN4CC[C@]56c7ccccc7N1[C@H]5[C@H]2[C@H]3C[C@H]46

>  <CLASS_ASSIGNMENT>
false

$$$$
>  <MOLECULE>
CCNS(=O)(=O)C(F)(F)C(F)(F)C(F)(F)C(F)(F)C(F)(F)C(F)(F)C(F)(F)C(F)(F)F

>  <CLASS_ASSIGNMENT>
false

$$$$
>  <MOLECULE>
CC(O)C(=O)[O][Hg][c]1ccccc1 (configuration not stated)

>  <CLASS_ASSIGNMENT>
false

$$$$
